Provenance of the data: patent US5464834A

Provide the reported ED50 of each item.
targetUnderTest: 5HT1A receptors (Rattus norvegicus)
Sequence (P19327 whole entry): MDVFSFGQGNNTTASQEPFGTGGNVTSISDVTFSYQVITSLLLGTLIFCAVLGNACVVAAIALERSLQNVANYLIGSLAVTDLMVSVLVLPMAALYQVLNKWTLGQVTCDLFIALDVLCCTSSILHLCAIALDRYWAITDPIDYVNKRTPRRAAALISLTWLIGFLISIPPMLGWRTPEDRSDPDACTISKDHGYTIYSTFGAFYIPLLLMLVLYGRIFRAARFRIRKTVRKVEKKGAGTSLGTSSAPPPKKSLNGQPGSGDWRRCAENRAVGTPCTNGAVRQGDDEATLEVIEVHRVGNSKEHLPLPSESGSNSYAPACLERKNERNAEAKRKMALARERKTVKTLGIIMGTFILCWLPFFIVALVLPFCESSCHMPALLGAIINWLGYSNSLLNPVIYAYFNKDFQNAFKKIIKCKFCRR
procedureSummary: Flat body posture (FBP), agonist (alone) and antagonist (vs 8-OH-DPAT)
Format: in vivo, rat (male Wistar)
Parameters: from tissue; host or cells: whole living male Wistar rats (endogenous receptor)
setupConditions: rat, sc; agonist test; compound alone s.c.; read-out: FBP ED50 (95% CL) alone

Endpoint output: ED50 of c1cc2c(c(N3CCN(CCc4cccc5ccccc45)CC3)c1)OCCO2 [Example 5] . Value?
> 2.5 mg/kg

Please do the same for c1cc2c(c(N3CCN(CC4Cc5ccsc5C4)CC3)c1)OCCO2 (racemic) [Example 3] as well.
< 10 mg/kg

Please do the same for c1cc2c(c(N3CCN(CCc4ccsc4)CC3)c1)OCCO2 [Example 11] as well.
> 2.5 mg/kg

Please do the same for c1cc2c(c(N3CCN(CCCc4ccsc4)CC3)c1)OCCO2 [Example 1] as well.
> 10 mg/kg

Please do the same for c1ccc(CCCN2CCN(c3cccc4c3OCCO4)CC2)cc1 [Example 12] as well.
> 2.5 mg/kg
